B1: ACSBG2 (parent)
chain: TPMTIPEFFRESVNRFGTYPALAS

Variants of: B1
Assay: protein stability index of a GFP-peptide fusion (GPS, HEK-293T) (PSI 1-6); higher = more stable;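 note: lentivirally expressed fusions sorted by FACS into six bins by GFP to DsRed ratio, PSI derived from sequencing read proportions per bin multiplied by bin number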
Settings: c terminus: a fixed tail appended
Param threshold (2) applies to protein stability index; output true when value >= threshold, false when value < threshold.

These recorded examples may help you get a feel for the data.
>>> print(df.to_string())
                     item_sequence  label
0  TPMTIPEFFRESVYRFGTYPALAS [N14Y]  false
1  TPMTIPEFFRESVNRFGWYPALAS [T18W]  false
2  TPMTIPEFFRESVNRFCTYPALAS [G17C]  false
3   TPMTQPEFFRESVNRFGTYPALAS [I5Q]   true
4   TPMTIPEFERESVNRFGTYPALAS [F9E]   true
5   APMTIPEFFRESVNRFGTYPALAS [T1A]   true

We now examine a further variant.
Task: Is protein stability index at least 2? Consider TDMTIPEFFRESVNRFGTYPALAS [P2D]
Output: true
